PROTOCOL_DETAILS: Binding affinity to calcium saturated His tagged cNTnC (1 to 90 residues)- cTnI (136 to 163 residues) C35S mutant chimeric protein (unknown origin) assessed as dissociation constant by flourescence spectroscopy analysis
Set-up: species or system Homo sapiens
pKd: −log10 of the molar value.

>  <SMILES_CODE>
N#C/C(=C\c1ccc(N(c2ccccc2)c2ccccc2)cc1)C(=O)O

>  <pKd>
7.25

$$$$

###

PROTOCOL_DETAILS: Inhibition of actomyosin ATPase activity in bovine cardiac myofibrils assessed as reduction in inorganic phosphate release using ATP as substrate preincubated for 30 mins in presence of pCa 4.5 followed by substrate addition by malachite green based assay
Parameters: species or system Bos taurus
ASSAY_ENDPOINT: IC50

>  <SMILES_CODE>
N#C/C(=C\c1ccc(N(c2ccccc2)c2ccccc2)cc1)C(=O)O

>  <ASSAY_ENDPOINT>
IC50

>  <REPORTED_MEASUREMENT>
11 nM

$$$$

###

PROTOCOL_DETAILS: Binding affinity to calcium saturated His-tagged cNTnC (1 to 90 residues)- cTnI (136 to 163 residues) A-Cys chimeric protein harboring C35S/C84S double mutant (unknown origin) assessed as dissociation constant by flourescence spectroscopy analysis
Design: species or system Homo sapiens
ASSAY_ENDPOINT: Kd (nM)

>  <SMILES_CODE>
N#C/C(=C\c1ccc(N(c2ccccc2)c2ccccc2)cc1)C(=O)O

>  <REPORTED_MEASUREMENT>
45

$$$$

###

PROTOCOL_DETAILS: Covalent binding affinity to [15N]-labelled cNTnC (1 to 90 residues)- cTnI (136 to 163 residues) C35S mutant chimeric protein (unknown origin) expressed in Escherichia coli BL21 (DE3) assessed as dissociation constant by 2D 1H, 15N HSQC NMR spectroscopy analysis
Set-up: species or system Homo sapiens
pKd: −log10 of the molar value.
ASSAY_ENDPOINT: pKd

>  <SMILES_CODE>
N#C/C(=C\c1ccc(N(c2ccccc2)c2ccccc2)cc1)C(=O)O

>  <REPORTED_MEASUREMENT>
> 6.30

$$$$

###

PROTOCOL_DETAILS: Aqueous solubility of the compound by 1D H-NMR spectroscopy analysis
Type: physicochemical

>  <SMILES_CODE>
N#C/C(=C\c1ccc(N(c2ccccc2)c2ccccc2)cc1)C(=O)O

>  <solubility>
< 50 µM

$$$$
